I'd appreciate it if you could supply composite z-score values for the items below.
tested_target: Left-right determination factor 2 (Homo sapiens) (UniProt O00292)
Sequence (O00292 whole entry, looked up): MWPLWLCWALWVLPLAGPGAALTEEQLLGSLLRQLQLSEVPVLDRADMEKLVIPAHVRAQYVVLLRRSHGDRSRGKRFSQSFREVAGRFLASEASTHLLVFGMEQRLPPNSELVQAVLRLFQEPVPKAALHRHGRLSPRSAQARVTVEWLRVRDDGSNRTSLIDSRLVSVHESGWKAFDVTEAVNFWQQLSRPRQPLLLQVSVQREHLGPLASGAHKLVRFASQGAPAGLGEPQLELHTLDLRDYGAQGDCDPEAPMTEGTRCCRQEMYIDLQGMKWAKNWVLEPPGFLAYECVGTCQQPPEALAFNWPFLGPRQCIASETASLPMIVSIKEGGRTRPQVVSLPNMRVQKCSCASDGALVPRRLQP
measurement_description: small molecules binding LEFTY2 protein – biochemical, small-molecule microarray, 635 nm fluorescence scan, primary screen (AID 1110)
experimental_conditions: higher = more signal
One number for each entry.

Past entries and their recorded results:
-- ask Please tell me the measured composite z-score for CCCC=C(CCC)[C@@H](NS(=O)(=O)c1ccc(C(F)(F)F)cc1)c1ccccc1 ; system: Left-right determination factor 2 (Homo sapiens) (UniProt O00292).
-- reply -0.318

-- ask Provide composite z-score, tested on Left-right determination factor 2 (Homo sapiens) (UniProt O00292), for CC1CC/C=C\[C@H]2OC34C=CCN(c5ccc(Cl)cc5)C(=O)[C@H]3N(C(C)CO)C(=O)[C@]4(C)C2C(=O)O1 (some centres not stated) .
-- reply -0.707

-- ask Enter measured composite z-score, system Left-right determination factor 2 (Homo sapiens) (UniProt O00292), for the molecule shown: Cc1ccc(S[C@]2(C(=O)NCc3ccccc3)CC(=O)N(C3CCCCC3)[C@@H]2c2ccc(CO)cc2I)cc1
-- reply -0.364

Required: composite z-score, one value per molecule below.
1. CCCC[C@@H](O)C1=C(COC)C[C@H]2C(=O)N(C)C(=O)[C@H]2[C@H]1CO
2. C=CCNC(=O)[C@@H]1[C@H]2C(=O)O[C@H](c3ccccc3)[C@H](c3ccccc3)N2[C@H](c2ccc(O)cc2)[C@@]12C(=O)N(C(=O)OCCOC)c1ccc(C#CC3=CCCCC3)cc12
3. COc1ccc([Si](C)(C)[C@@H]2[C@@H](CCO)O[C@]3(C(=O)N(Cc4ccccc4)c4ccc(NC(=O)[C@H](C)O)cc43)[C@H]2C)cc1

-- reply
1: 0.822; 2: 0.588; 3: 0.387

-- ask State, for Left-right determination factor 2 (Homo sapiens) (UniProt O00292), measured composite z-score of the molecule listed here: COc1cc(NN2C(C(O)c3cc(OC)c(OC)c(OC)c3)C=CC3C(=O)N(C)C(=O)C32)cc(OC)c1OC (configuration not stated)
-- reply -0.229
